System: G(−) bacterial strains
Measurement notes: Dilution antimicrobial susceptibility tests (MIC, NCCLS agar dilution / broth dilution)
Assay type: cell-based, Gram-negative organisms
Condition info: strain #25 Shigella dysenteriae; unit assumed
Entries annotated with measured MIC
# number only, unit µg/mL dropped from output

>>> print(df.to_string())
                                   molecule  readout_number
0  C[C@@H](O)C1C(=O)N2C(C(=O)O)=C(CN3CC(NS(N)(=O)=O)C3)[C@H](C)C12 (some centres unmarked) [Compound 58]            0.25
1  C[C@@H](O)C1C(=O)N2C(C(=O)O)=C(CN3CC[C@H](NCC(N)=O)C3)[C@H](C)C12 (some centres unmarked) [Compound 83]               1
2  C[C@@H](O)C1C(=O)N2C(C(=O)O)=C(CN3CC[C@H](C(=O)NS(C)(=O)=O)C3)[C@H](C)C12 (some centres unmarked) [Compound 132]            0.25
3  C[C@@H](O)C1C(=O)N2C(C(=O)O)=C(CN3CC[C@@H](C(N)=O)C3)[C@H](C)C12 (some centres unmarked) [Compound 115]            0.25
4  C[C@@H](O)C1C(=O)N2C(C(=O)O)=C(CN3CC[C@H](C(=O)N(C)C)C3)[C@H](C)C12 (some centres unmarked) [Compound 120]             0.5
5  C[C@@H](O)[C@H]1C(=O)N2C(C(=O)O)=C(CN3CC(O)C(NC(=N)N)C3)[C@H](C)[C@H]12 (mixture of isomers) [Compound 176]            0.13
6  C[C@@H](O)C1C(=O)N2C(C(=O)O)=C(CN3CC[C@H](C(=O)NCC(N)=O)C3)[C@H](C)C12 (some centres unmarked) [Compound 137]               1
7  C[C@@H](O)C1C(=O)N2C(C(=O)O)=C(CN3CC(C(N)=O)C3)[C@H](C)C12 (some centres unmarked) [Compound 49]            0.13

// moving on: another record for MIC
Field MIC (entry C[C@@H](O)C1C(=O)N2C(C(=O)O)=C(CN3CC[C@H](NC(N)=O)C3)[C@H](C)C12 (some centres unmarked) [Compound 78] ) reads 1

* * *

Tested on: G(−) bacterial strains
Measurement notes: Dilution antimicrobial susceptibility tests (MIC, NCCLS agar dilution / broth dilution)
Format: cell-based, Gram-negative organisms
Condition info: strain #7 Enterobacter aerogenes; unit assumed
Each record here notes measured MIC.
Give the figure together with its unit, number first.

Solved cases below.
                                   compound     result
0  CC(O)C1C(=O)N2C(C(=O)O)=C(CN3CCC(C(=N)N)C3)C(C)C12 (stereo not drawn) [Compound 185a]  0.5 µg/mL
1  CC(=O)NC(=N)N[C@H]1CCN(CC2=C(C(=O)O)N3C(=O)C([C@@H](C)O)C3[C@H]2C)C1 (stereo partly drawn)    2 µg/mL
2  C[C@@H](O)C1C(=O)N2C(C(=O)O)=C(CN3CC(NC(=N)N)C3)[C@H](C)C12 (stereo partly drawn)    1 µg/mL
3  C[C@@H](O)[C@H]1C(=O)N2C(C(=O)O)=C(CN3C[C@@H](O)[C@H](NC(=N)N)C3)[C@H](C)[C@H]12    1 µg/mL
4  C[C@@H](O)C1C(=O)N2C(C(=O)O)=C(CN3CC[C@H](NC(=O)C(F)(F)F)C3)[C@H](C)C12 (stereo partly drawn)    2 µg/mL

With G(−) bacterial strains as the test system, C[C@@H](O)C1C(=O)N2C(C(=O)O)=C(CN3CC[C@H](NS(N)(=O)=O)C3)[C@H](C)C12 (stereo partly drawn) showed MIC of 1 µg/mL

Kindly note: G(−) bacterial strains, C[C@@H](O)C1C(=O)N2C(C(=O)O)=C(CN3CC[C@H](NC=N)C3)[C@H](C)C12 (stereo partly drawn) , MIC value reported: 1 µg/mL

The observed MIC for C[C@@H](O)C1C(=O)N2C(C(=O)O)=C(CN3CC[C@H](NC(=O)CNS(N)(=O)=O)C3)[C@H](C)C12 (stereo partly drawn) when tested with G(−) bacterial strains stands at 2 µg/mL
